TARGET OR SYSTEM: Human Factor B (human) (UniProt P00751)
Sequence (P00751 26-764 limits assumed): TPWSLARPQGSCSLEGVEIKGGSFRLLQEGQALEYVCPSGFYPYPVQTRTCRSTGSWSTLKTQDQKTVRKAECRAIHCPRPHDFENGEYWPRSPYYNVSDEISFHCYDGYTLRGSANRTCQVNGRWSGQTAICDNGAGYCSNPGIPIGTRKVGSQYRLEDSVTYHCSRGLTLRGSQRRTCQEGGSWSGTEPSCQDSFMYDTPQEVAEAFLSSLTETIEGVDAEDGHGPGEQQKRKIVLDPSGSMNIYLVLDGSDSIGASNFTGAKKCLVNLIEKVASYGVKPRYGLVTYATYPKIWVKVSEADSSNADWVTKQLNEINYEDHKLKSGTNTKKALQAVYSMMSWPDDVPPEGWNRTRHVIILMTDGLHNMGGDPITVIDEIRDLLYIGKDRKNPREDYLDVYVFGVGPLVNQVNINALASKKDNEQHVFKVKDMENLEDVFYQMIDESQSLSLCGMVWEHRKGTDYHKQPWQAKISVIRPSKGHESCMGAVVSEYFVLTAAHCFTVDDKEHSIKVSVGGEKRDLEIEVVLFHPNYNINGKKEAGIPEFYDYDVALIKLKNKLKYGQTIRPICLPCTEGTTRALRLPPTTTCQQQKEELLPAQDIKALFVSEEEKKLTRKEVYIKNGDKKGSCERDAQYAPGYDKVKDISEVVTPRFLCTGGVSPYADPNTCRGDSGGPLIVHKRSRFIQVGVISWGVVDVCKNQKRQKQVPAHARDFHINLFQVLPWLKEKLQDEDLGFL
ASSAY TEXT: cell-based or functional assay
Recorded fB Cleavage EC50 for the following binders
State just the number; it will be interpreted in µM.

Would you kindly share the measured fB Cleavage EC50 for chymase C22S/F41V/L99H/G151R/F173S/Y215K/A226R (enzyme) IIGGTESKPHSRPYMAYLEIVTSNGPSKVCGGFLIRRNFVLTAAHCAGRSITVTLGAHNITEEEDTWQKLEVIKQFRHPKYNTSTHHHDIMLLKLKEKASLTLAVGTLPFPSQFNFVPPGRMCRVAGWGRTGVLKPRSDTLQEVKLRLMDPQACSHSRDFDHNLQLCVGNPRKTKSAFKGDSGGPLLCAGVAQGIVSKGRSDAKPPRVFTRISHYRPWINQILQAN ?
4.78

# ---- query binder ----
Would you kindly share the measured fB Cleavage EC50 for chymase C22S/F41L/L99H/G151T/F173L/Y215K/A226R (enzyme) IIGGTESKPHSRPYMAYLEIVTSNGPSKLCGGFLIRRNFVLTAAHCAGRSITVTLGAHNITEEEDTWQKLEVIKQFRHPKYNTSTHHHDIMLLKLKEKASLTLAVGTLPFPSQFNFVPPGRMCRVAGWGRTGVLKPTSDTLQEVKLRLMDPQACSHLRDFDHNLQLCVGNPRKTKSAFKGDSGGPLLCAGVAQGIVSKGRSDAKPPRVFTRISHYRPWINQILQAN ?
4.17
